Tested on: FXR:RXRa (NR concentration 270 nM, RXRa partner concentration 90 nM)
run.description: PBM binding z-score (relative to random genomic background probes); higher = stronger binding; sequences stand for … in GC…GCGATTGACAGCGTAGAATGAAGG
# class assignment by measured PBM binding z-score: lowest = under 0.002, middle = from 0.002 up to 4, highest = 4 and over

Each sequence maps to one class by PBM binding z-score. Which class for CCTACTGGGCCAAAGGTCATTGGTTCCAATGCTC ?
highest

For this sequence, which bin applies? CCTGCTAGGTCCATGGTCAGCTAAAGCAGCTCGC
lowest

Into which bin does this sequence go? CCGAGTAGATTATGGGGCATTCAGGCAACGGTGA
middle

Band for the recorded PBM binding z-score of CGAACTCGGTCATCCAGGACAGTGAATACATTGA ?
middle

Categorize the following entry: GCAGACAGGTGAGACGCAGGTAACTCAGGGTGGC
lowest

Sort CTCGAAAGGTCGTGCTCACGTGAGTATACCAAAC into one of the categories.
highest

Determine which band this sequence sits in: AAATGTAGGTTATCGGGTCATTCAGTTTGCGCAT
middle

Which PBM binding z-score band matches CCTTACGGGTCACTCCAGGTTGTAGCATCGGAGT ?
highest

State the class of the sequence shown: CCAGACAGGTGAGAAGGTAACTGAGCCTCGATTA
lowest

Which bin, given its PBM binding z-score, does TATACAGGGTCAAAGGCTAGAGTACGAATGTCGA occupy?
highest

Exam item: assign TCTTGCAGATCAAAGGTTAAGAAAGCCGAAGCCT to the correct category.
middle

Assign a category based on measured PBM binding z-score for ATCTCTAGGTAAGACTCAGTTCAGTGGAGAACGC and give only the class name.
middle

Which of the defined bands does the recorded PBM binding z-score of CGTCAAAGTTCAACTAAGGTAACGAAAAGCACGC sit within?
highest

Lab note: sort GCGACTGGGGCATCAGCAGGTTACCAAAACTTAA into the matching PBM binding z-score band.
lowest
